system_tested: human Keap1 kelch domain (amino acids Ala321-Thr609) (Homo sapiens)
Construct: human Keap1 kelch domain (amino acids Ala321-Thr609)
Sequence (Q14145 321-609): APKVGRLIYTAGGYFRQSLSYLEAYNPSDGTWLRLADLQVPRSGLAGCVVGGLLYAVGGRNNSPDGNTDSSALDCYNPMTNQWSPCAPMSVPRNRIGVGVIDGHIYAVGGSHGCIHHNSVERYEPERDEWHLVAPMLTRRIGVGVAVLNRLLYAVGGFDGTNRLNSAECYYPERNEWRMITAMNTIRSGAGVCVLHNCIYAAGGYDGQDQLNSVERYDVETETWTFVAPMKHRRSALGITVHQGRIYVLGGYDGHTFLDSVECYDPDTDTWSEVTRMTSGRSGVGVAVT
protocol_details: Keap1-Nrf2 peptide binding assay (fluorescence polarisation)
conditions: binding to fluorescently labeled human Nrf2 peptide; 20 nM Keap1 kelch domain, 50 nM peptide; read-out: IC50
property_measured: IC50 (µM)
Field format: number, assumed µM, no unit text.

Solved cases (3 shown):
compound	IC50 (µM)
O=C(O)[C@H]1CCN(c2ccc(NS(=O)(=O)c3cc(Cl)cc(Cl)c3)c3ccccc23)C1 [Example 17]	2.9
COc1ccc(F)c(S(=O)(=O)Nc2ccc(N3CC[C@@H](C(=O)O)C3)c3ccccc23)c1 [Example 44]	2.5
Cn1ccc2c(S(=O)(=O)Nc3ccc(N4CC[C@@H](C(=O)O)C4)c4ccccc34)cccc21 [Example 64]	0.5

[Q] # input compound: Cc1cc(C)c(C)c(S(=O)(=O)Nc2ccc(N3CCC[C@@H](C(=O)O)C3)c3ccccc23)c1C [Example 58] ; wanted: its IC50
[A] 0.27
